PROTOCOL DETAILS: NCI Yeast Anticancer Drug Screen. Data for the sgs1 mgt1 strain (AID 161);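 note: 0% = growth of cultures given vehicle only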
STATED CONDITIONS: S. cerevisiae sgs1 mgt1 strain, at 50.0 µM, stronger effect = higher value
This is part of a sample that, as a whole, favours compounds with a hit. Of some 79,000 tested, about 15% had one in any assay.
PARAMETER: growth inhibition (%)
Give bare numbers, in %.

Give growth inhibition for all compounds that follow.
1. CN(C)C(=N)N
2. Nc1[nH][nH]c(=O)c1N=Nc1ccccc1
3. CC(=O)OC12CC3CCC4C(CCC5(C)C(C(C)CCCC(C)C)CCC45)C3(C)CC1O2 (stereo unspecified)
4. N#CCCCCCCC(N)=O
5. O=C(NCCCCCCNC(=O)NCc1ccc(Cl)c(Cl)c1)NCc1ccc(Cl)c(Cl)c1
6. C=CCCC12CCCC(=O)C1Sc1ccc3ccccc3c12 (stereo unspecified)

Key:
1. -27.4
2. -1.15
3. 69.8
4. 6.4
5. -3.8
6. 11.3

Dear colleague, could you please provide growth inhibition for the compounds listed below?
1. CCSc1cc(=O)n(C)c(=O)n1C
2. COc1ccc(C2=C/C(=C/c3cccc(OC)c3OC)C(=O)O2)cc1
3. CCCCCCCCCCCC(=O)N/N=C/c1ccccc1OC
4. COc1ccc(C(C)=O)c(O)c1OC

Key:
21.3
11.9
-10.3
9.1

Hey, can you go through the list below and give me growth inhibition for every item?
1. O=[N+]([O-])c1ccc(N2CCN=N2)cc1
2. CSc1ccc(C(=O)c2ccc(SC)cc2)cc1
3. Nc1ccc(F)cc1
4. CC(=O)OCC1OC(n2c(-c3ccc(Cl)cc3)cc(-c3ccccc3)c(C#N)c2=S)C(OC(C)=O)C(OC(C)=O)C1OC(C)=O (stereo unspecified)

Key:
1: -15.2; 2: 16.2; 3: -15.4; 4: 6.5

* * *

PROTOCOL DETAILS: NCI Yeast Anticancer Drug Screen. Data for the mlh1 rad18 strain (AID 175)
STATED CONDITIONS: S. cerevisiae mlh1 rad18 strain growth inhibition; at 50.0 µM; stronger effect = higher value
Compounds without any hit were thinned out: in the full panel of roughly 79,000, 15% have a hit.
Consider the following compounds; for each one, report its growth inhibition.
Give bare numbers, in %.

Exercise: Look up growth inhibition for this compound: "Cc1c(C)c(CC(=O)N2CC2)c(C)c(C)c1CC(=O)N1CC1"
Key: -36.2

Exercise: Let us now turn to OCC(O)Cn1cnc2c(NO)ncnc21 (stereo not drawn)
Key: 11.1

Further cases:
Exercise: Endpoint output: growth inhibition of "COC[C@@H](N=Cc1ccc(OC)cc1)C(C)C" . Value?
Key: -30.5

* * *

PROTOCOL DETAILS: NCI Yeast Anticancer Drug Screen. Data for the mlh1 rad18 strain (AID 175)
STATED CONDITIONS: S. cerevisiae mlh1 rad18 strain growth inhibition; at 50.0 µM
About 79,000 compounds went through this panel and 15% of them were active in at least one assay; those are over-represented in the sample as a whole. The source made the active and inactive calls. Rule as the data show it: active = growth inhibition above about 70%; inactive = the rest.
Hi there, use one of these labels in your reply, thanks! 1.0 (active), 0.0 (inactive)

Worked examples follow.
Exercise: I'd appreciate the recorded outcome for "CCOC(=O)C1=C(C(=O)c2ccc(OC)cc2)C(c2cccc([N+](=O)[O-])c2)C(C(=O)c2ccc(OC)cc2)=C(C(=O)OCC)N1" from this test.
Key: 0.0

Exercise: And the next one, Cc1c[nH]c(=O)n(CC(=O)C2(O)CCC3C4CCC5=CC(=O)CCC5(C)C4CCC32C)c1=O (stereo not drawn) ?
Key: 0.0

Exercise: Quick one: "Cc1cccc(NC(=O)CSc2nnc(Cc3ccccc3)o2)c1"
Key: 0.0

***
Exercise: // outcome(item) with item = "Cc1ccc2nc[nH]c2c1"
Key: 0.0

Exercise: Same read-out for N/N=C(\c1nc2ccc([N+](=O)[O-])cc2[nH]c1=O)C(O)c1ccc(Cl)c(Cl)c1 (stereo not drawn) ?
Key: 0.0

Exercise: Also, COCCOC(=O)C(O)c1ccccc1 (stereo not drawn) please.
Key: 0.0

Exercise: Next: CCN(CC)CCC(O)(Cc1ccccc1)c1cccc(Cl)c1 (stereo not drawn)
Key: 0.0

Exercise: Please give the result for COc1ccc2c(c1)CC1c3[nH]c4ccccc4c3CCN1C2 (stereo not drawn) too.
Key: 1.0

Exercise: Then this compound: "CNC(=S)N/N=C(C)\C=N/Nc1ccc(Br)cc1"
Key: 0.0

Exercise: Please do the same for "Cc1cccc2cc3ccc4ccccc4c3cc12" as well.
Key: 0.0

Exercise: # repeat for "Cc1ccc(-c2nc(C)c(C(=O)Nc3ccc(Cl)cc3)s2)cc1"
Key: 0.0

Exercise: And "CN1C(=S)CSc2ccccc21" ?
Key: 0.0

Exercise: Same lookup for "CCCCCC(=O)Oc1ccccc1OC" , please.
Key: 0.0

* * *

For each record, write down the corresponding growth inhibition.
PROTOCOL DETAILS: NCI Yeast Anticancer Drug Screen. Data for the mec2-1 strain (AID 157)
STATED CONDITIONS: S. cerevisiae mec2-1 strain, at 50.0 µM, stronger effect = higher value
The panel holds about 79,000 compounds, 15% with a hit somewhere; the sample as a whole holds those more often.
Numbers only, in %.

Consider the reported growth inhibition for these compounds:
Exercise: Field request: growth inhibition | item: Cc1c(C(CC(=O)c2ccccc2)C(=O)O)c2ccccc2n1C (stereo unspecified)
Key: -25.3

Exercise: Input "COC(=O)c1c2c(C)ccc(C)c2nc2c(C)ccc(C)c12"
Key: -41

Exercise: Continue with "CCCC[N+](C)(CCCC)CCCC"
Key: 9.65

Exercise: And then CN1CCOC1(C)CO (stereo unspecified) , what is it?
Key: -16.7

Exercise: Item: "C1=C(C2=CCCCC2)CCCC1"
Key: 6

Hi, could you look up growth inhibition for each item in my list?
1. O=C(c1ccc(Cl)cc1)C1C(c2ccccc2)C1[N+](=O)[O-] (stereo unspecified)
2. COc1ccc(CCn2cnn3c(=O)c4ccccc4nc3c2=O)cc1OC
3. COc1ccc(Cl)cc1C(O)CN1CCCCC1 (stereo unspecified)
4. N#Cc1c(-c2ccc([N+](=O)[O-])cc2)c(C#N)c(=O)n(NS(=O)(=O)c2ccccc2)c1-c1ccccc1
5. COc1ccc(-c2nnc(-c3nsc4ccccc34)o2)cc1
6. Cc1c(Cl)c(C)c(Cc2c(C)c(Cl)c(C)c(Cl)c2O)c(O)c1Cl
7. CC(C)[Si](C#CC[Si](C(C)C)(C(C)C)C(C)C)(C(C)C)C(C)C
8. CCCC1c2c(ccc3ccccc23)Oc2ccc3ccccc3c21

Key:
1: -11.2; 2: -29.9; 3: -11.9; 4: 13.3; 5: -31.9; 6: -40.4; 7: -6; 8: 2.4

For each entry beneath this line, provide reported growth inhibition.
1. CC(=O)[C@H]1C[C@@H](CC(=O)O)C1(C)C
2. Cc1cc(Cl)nc(Nc2ccccc2)n1
3. NS(=O)(=O)c1ccc(NC(=O)Nc2cccc(Cl)c2)cc1

Key:
-11.8
-2.5
12.6

* * *

PROTOCOL DETAILS: NCI Yeast Anticancer Drug Screen. Data for the mec2-1 strain (AID 157)
STATED CONDITIONS: S. cerevisiae mec2-1 strain, at 50.0 µM
About 79,000 compounds went through this panel and 15% of them were active in at least one assay; those are over-represented in the sample as a whole. Active and inactive are the calls of the source. No stated cut-off is given here; in the data, active means growth inhibition above about 70%; inactive means the rest.
One label from this list, please: active, inactive

# count of solved cases: 10
Exercise: Hi, do you know how "CCCCCCCCCCCC1=C(O)C(=O)C(I)=C(O)C1=O" came out in this test?
Key: inactive

Exercise: Further, for "COc1ccc(N=C(C)c2c(O)n(-c3ccccc3)[nH]c2=O)cc1" ?
Key: active

Exercise: Please give the result for "CC(C)(C)c1cc(C[N+](C)(C)[O-])c(O)c(-c2ccccc2)c1" too.
Key: inactive

Exercise: Another molecule to look at: N#Cc1c(Br)n(C2OC(CO)C(O)C2O)c2ncncc12 (stereo not given)
Key: inactive

Exercise: Also CCOC(=O)C(CCCN=C(N)NC(=O)OCc1ccccc1)NC(=O)C(C(C)C)N1C(=O)c2ccccc2C1=O (stereo not given) ?
Key: active

Exercise: Now give it for "COc1ccc(OC)c2c(C(C)=O)cccc12" too.
Key: inactive

Exercise: Also need O=C(CC(c1ccccc1)N1CCCCC1)OCC1CCCO1 (stereo not given) , thanks.
Key: inactive

Exercise: Also "FC(F)(F)c1ccccc1N=Cc1cccs1" , if possible.
Key: inactive

Exercise: What about "CC(C)(O)c1cc2nc3ccccc3nc2n1CCO" ?
Key: inactive

Exercise: Entry CCCCCC(=O)C(CCCC)C(=O)OCC (stereo not given) please
Key: inactive

Further cases:
Exercise: Hey, what did the test say about "Cc1cc2nc(C(C)(C)O)[nH]c2cc1C" ?
Key: inactive

Exercise: What about "Cc1ccc(C(=O)OCc2ccccc2CN2CCCCC2)cc1" ?
Key: inactive

Exercise: Now consider "O=C1CS(=O)(=O)c2ccccc21" .
Key: inactive

Exercise: Entry COCCCNC1=C(C#N)C(=O)NC(c2cccs2)S1 (stereo not given) please
Key: inactive

Exercise: Subsequent entry: CCCCOCCOCCOC(=O)C(C)O (stereo not given)
Key: inactive

Exercise: Now give it for "CN(C)c1ccccc1C(=O)N/N=C\c1ccc(O)c(O)c1" too.
Key: inactive

Exercise: Another molecule to look at: "Nc1nc(N)nc(COc2ccccc2Cl)n1"
Key: inactive

Exercise: Consider next the molecule CC(=O)OC1COC(NC(=O)N(CCCl)N=O)C(OC(C)=O)C1OC(C)=O (stereo not given) in the same way.
Key: inactive

Exercise: # iterate: "O=C1CCCNc2c(Br)cc(Br)cc21"
Key: inactive

Exercise: Can you handle O=C1OC(c2ccccc2)N(C(=O)c2ccccc2)C1Cc1ccc(OCc2ccccc2)cc1 (stereo not given) next?
Key: inactive

Exercise: Now give it for O=C(OCCO)C1CC2CC1C1(C2)OCCO1 (stereo not given) too.
Key: inactive

Exercise: Same again, this time with "CSC(=S)Nc1nc2ccc(Cl)cc2s1"
Key: inactive

Exercise: What do you have for "CCNC1=CC(=O)c2ncccc2C1=O" ?
Key: inactive

Exercise: Can you check C=C1/C=C/C=C(/C)C(=O)Nc2c(C=O)c(O)c3c4c(c(C)c(O)c3c2O)OC(C)(O/C=C/C(OC)C(C)C(OC(C)=O)C(C)C(O)C(C)C1O)C4=O (stereo not given) next?
Key: inactive

Exercise: What do you get for "O=C1c2ccccc2-c2ccc(N=Cc3cccs3)cc21" ?
Key: inactive

Exercise: Next molecule up: O=C(O)C1CCCCN1/N=C/c1cccc([N+](=O)[O-])c1 (stereo not given)
Key: inactive

Exercise: Param item: "O=[N+]([O-])c1ccc(/C=N\NC(=S)Nc2ccc3cn[nH]c3c2)cc1"
Key: inactive

Exercise: Repeat for the following molecule: "c1ccc2c(c1)SCCCSCCCS2"
Key: inactive

Exercise: What do you have for "CC(C)(C)c1cc2c3c(c1)C(C(F)(F)F)(C(F)(F)F)OS3(=O)(O)OC2(C(F)(F)F)C(F)(F)F" ?
Key: inactive

Exercise: How about CCC(Cc1ccco1)C(=O)NC(N)=O (stereo not given) ?
Key: inactive
